system_tested: TEAD1 YAP50-100 (Homo sapiens, UniProt P28347)
Sequence (P28347 167-426 limits assumed): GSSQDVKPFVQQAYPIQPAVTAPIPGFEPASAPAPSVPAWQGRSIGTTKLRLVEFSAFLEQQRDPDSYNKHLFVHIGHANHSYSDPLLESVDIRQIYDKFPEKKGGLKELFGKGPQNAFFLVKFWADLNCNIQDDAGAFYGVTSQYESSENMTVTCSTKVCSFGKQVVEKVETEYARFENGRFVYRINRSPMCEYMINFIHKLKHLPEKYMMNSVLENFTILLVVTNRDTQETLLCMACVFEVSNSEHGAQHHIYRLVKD
protocol_notes: TEAD1-YAP HTRF (TR-FRET) protein-protein interaction assay
Format: binding
assay_conditions: TEAD1, YAP peptide 50-100, HTRF
Description: Purified His-tagged TEAD protein (YAP Binding Domain, amino acids 217-447) is pre-incubated with Europium labelled anti-His antibody tracer (Perkin Elmer Cat #AD0110). […] After 60 minutes, the plate is read on a plate reader using TR-FRET mode with wavelengths of 665 nm/615 nm. […] The potency of compounds as YAP:TEAD or TAZ:TEAD protein-protein interaction (PPi) inhibitors is determined by an IC50 or EC50 value generated using a non-linear four parameter curve fit.
test_readout: TEAD1 YAP50-100 HTRF combined: Max % Inhibition (%)

// query Request the reported TEAD1 YAP50-100 HTRF combined: Max % Inhibition associated with O=C(c1c(-c2cnccn2)nn2c(=O)cc(-c3ccc(CC4CCCC4)cc3)[nH]c12)N1CC(CF)C1
// result 60.0

// query And for CC1CCN1C(=O)c1nn2c(=O)cc(-c3ccc(C4CCCCC4)cc3)[nH]c2c1C(=O)N1CC(CF)C1 (single isomer, unassigned) [Enantiomer B, Example 33] ?
// result 72.0

// query And for O=C(c1c(-c2cnccn2)nn2c(=O)cc(-c3ccc(C4CCCCC4)cc3)[nH]c12)N1CC(CF)C1 ?
// result 69.0

* * *

system_tested: TEAD4 TAZ (amino acids 13-57) (Homo sapiens)
Sequence (Q15561 217-434 limits assumed): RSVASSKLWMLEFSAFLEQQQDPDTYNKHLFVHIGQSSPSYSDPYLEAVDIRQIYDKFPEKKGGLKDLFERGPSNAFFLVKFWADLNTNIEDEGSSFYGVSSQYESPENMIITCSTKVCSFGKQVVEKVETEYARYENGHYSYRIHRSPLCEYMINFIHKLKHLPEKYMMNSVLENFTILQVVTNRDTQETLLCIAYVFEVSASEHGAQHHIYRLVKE
protocol_notes: TEAD4-TAZ HTRF (TR-FRET) protein-protein interaction assay
Assay type: binding
assay_conditions: TEAD4, TAZ peptide, HTRF
test_readout: TEAD4 TAZ HTRF combined: Max % Inhibition (%)

Worked cases, answers included:
// query Can you look up TEAD4 TAZ HTRF combined: Max % Inhibition on TEAD4 TAZ (amino acids 13-57) (Homo sapiens) for CN(C)C(=O)c1nn2c(=O)cc(-c3cc(F)c(C4CCCCC4)c(F)c3)[nH]c2c1C(=O)N1CC(CF)C1 [Compound 3] ?
// result 29.0

// query And for N#Cc1nccnc1-c1nn2c(=O)cc(-c3ccc(C4CCCCC4)cc3)[nH]c2c1C(=O)N1CC(CF)C1 [Compound 8] ?
// result 44.5

// query And for C[C@H]1[C@@H](CF)CN1C(=O)c1c(C(=O)N(C)C)nn2c(=O)cc(-c3ccc(C4CCCCC4)cc3)[nH]c12 [Compound 5] ?
// result 41.0

// query And for C[C@H]1[C@@H](CF)CN1C(=O)c1c(-c2cnccn2)nn2c(=O)cc(-c3ccc(CC4CCCC4)cc3)[nH]c12 (single isomer, unassigned) [Isomer A, Example 44] ?
// result 42.0

a. O=C(c1c(-c2ncccn2)nn2c(=O)cc(-c3ccc(C4(C5CCCC5)CC4)cc3)[nH]c12)N1CC(CF)C1 [Compound 57]
b. C[C@H](CO)c1nn2c(=O)cc(-c3ccc(C4CCCCC4)cc3)[nH]c2c1C(=O)N1CC(CF)C1 (single isomer, unassigned) [Enantiomer A, Example 55]
// query Which record shows the lower TEAD4 TAZ HTRF combined: Max % Inhibition: the first, a , or the second, b ? To answer, give the label that identifies your chosen option.
// result b
(b: 32.0%, a: 54.5%)
